Biological target: recombinant human GST-SYK (Homo sapiens)
Assay: Homogeneous Time-Resolved Fluorescence (HTRF) assay for the recombinant human SYK enzyme
Conditions: recombinant human GST-SYK 5 pM, ATP 25 μM, 10-dose titration; read-out: rhSYK Activity (IC50)
pIC50: −log10 of the molar value.
reportedMetric: pIC50

Example entries begin here.
NC1CCN(c2ncc(-c3cccc(Nc4nccc(C(F)(F)F)n4)c3)s2)CC1
≥ 7.00
Cc1cc(Nc2nccc([S+](C)[O-])n2)cc(-c2cnc(N3CCCNC(=O)C3)s2)c1 (stereo not shown)
≥ 7.00
Cc1cc(Nc2nccc(OCCO)n2)cc(-c2cnc(N3CCCNC(=O)C3)s2)c1
≥ 7.00
Cc1ccnc(Nc2cccc(-c3csc(N4CCC(C(N)=O)CC4)n3)c2)n1
6.00 to 7.00
Cc1cc(Nc2nccc(C(F)(F)F)n2)cc(-c2cnc(NCc3ccncc3)s2)c1
≥ 7.00
Cc1cc(Nc2nccc(C(F)(F)F)n2)cc(-c2cnc(NCCc3c[nH]cn3)s2)c1
≥ 7.00
CC(=O)NCCC1CCN(c2ncc(-c3cc(C)cc(Nc4nccc(C(F)(F)F)n4)c3)s2)CC1
≥ 7.00
Cc1cc(Nc2nccc(C(F)(F)F)n2)cc(-c2cnc(N3CC4CNC(CO)C4C3)s2)c1 (stereo not shown)
≥ 7.00

Please report pIC50 for every entry that follows.
1. Cc1cc(Nc2nccc(C(F)(F)F)n2)cc(-c2cnc(NCCc3c(C)n[nH]c3C)s2)c1
2. CS(=O)(=O)Nc1ncc(-c2cccc(Nc3nccc(C(F)(F)F)n3)c2)s1
3. Cc1cc(Nc2nccc(C3CCCC3)n2)cc(-c2cnc(N3CCCNC(=O)C3)s2)c1
4. Cc1cc(Nc2nccc(C(F)(F)F)n2)cc(-c2cnc(N3CCC(c4ccc(S(C)(=O)=O)cc4)CC3)s2)c1
5. Cc1cc(Nc2nccc(C(F)(F)F)n2)cc(-c2cnc(NCCc3ccco3)s2)c1
6. Cc1cc(Nc2nccc(C(F)(F)F)n2)cc(-c2cnc(N3CCC(OCC(=O)NC(C)(C)C)CC3)s2)c1
7. COc1nc(Nc2cc(C)cc(-c3cnc(N4CCCNC(=O)C4)s3)c2)ncc1Cl
8. CC(=O)Nc1cc(Nc2nccc(C(F)(F)F)n2)cc(-c2cnc(N3CCCNC(=O)C3)s2)c1

stdout:
≥ 7.00
≥ 7.00
≥ 7.00
5.00 to 6.00
≥ 7.00
5.00 to 6.00
≥ 7.00
≥ 7.00
